system-tested: T1, mSlo1/β4(H101Y) channel (mouse | human, UniProt Q08460 1-1209; Q86W47 1-210, H101Y)
T1 construct: mSlo1, BK channel α subunit (KCNMA1) of mouse, full-length cDNA, GenBank HQ221747.1; human BK channel β4 subunit (KCNMB4), full-length cDNA, GenBank AF207992.1; source: HEK293, transiently co-transfected (pcDNA3.1(+)), in excised membrane patches; copies: 4 + 4
T1 sequence (Q08460 whole entry, chain 1 of 2): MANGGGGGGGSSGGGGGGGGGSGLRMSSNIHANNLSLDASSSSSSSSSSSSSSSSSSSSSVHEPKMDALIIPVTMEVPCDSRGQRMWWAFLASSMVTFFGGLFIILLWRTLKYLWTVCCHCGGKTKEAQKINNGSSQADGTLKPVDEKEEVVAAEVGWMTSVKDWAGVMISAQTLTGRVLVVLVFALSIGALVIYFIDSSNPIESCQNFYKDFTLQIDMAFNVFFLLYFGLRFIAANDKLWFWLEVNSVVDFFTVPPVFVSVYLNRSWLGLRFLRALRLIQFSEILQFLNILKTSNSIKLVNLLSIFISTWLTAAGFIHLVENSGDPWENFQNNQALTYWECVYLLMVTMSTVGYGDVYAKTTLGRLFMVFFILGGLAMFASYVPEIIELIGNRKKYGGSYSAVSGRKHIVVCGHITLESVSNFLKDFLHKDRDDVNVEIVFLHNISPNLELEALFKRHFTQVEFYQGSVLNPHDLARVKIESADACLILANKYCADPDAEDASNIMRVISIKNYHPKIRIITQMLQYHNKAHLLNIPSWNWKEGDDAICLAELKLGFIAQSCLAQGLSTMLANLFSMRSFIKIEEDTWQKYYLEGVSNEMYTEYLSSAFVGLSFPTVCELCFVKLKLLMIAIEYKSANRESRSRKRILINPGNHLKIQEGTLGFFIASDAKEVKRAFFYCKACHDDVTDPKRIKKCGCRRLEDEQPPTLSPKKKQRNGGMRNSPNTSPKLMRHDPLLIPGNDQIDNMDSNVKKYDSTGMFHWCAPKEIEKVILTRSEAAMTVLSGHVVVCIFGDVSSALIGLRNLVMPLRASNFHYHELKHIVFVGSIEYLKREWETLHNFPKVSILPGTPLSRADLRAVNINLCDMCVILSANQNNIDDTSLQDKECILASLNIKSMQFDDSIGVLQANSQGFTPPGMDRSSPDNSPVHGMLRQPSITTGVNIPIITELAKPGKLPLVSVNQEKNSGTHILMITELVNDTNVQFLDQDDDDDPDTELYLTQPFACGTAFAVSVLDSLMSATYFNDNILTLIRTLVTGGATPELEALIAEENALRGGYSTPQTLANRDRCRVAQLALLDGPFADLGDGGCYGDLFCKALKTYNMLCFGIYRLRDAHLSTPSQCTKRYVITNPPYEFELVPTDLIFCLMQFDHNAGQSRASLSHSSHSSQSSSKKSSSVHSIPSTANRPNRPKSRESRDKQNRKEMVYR
T1 sequence (Q86W47 whole entry H101Y, chain 2 of 2): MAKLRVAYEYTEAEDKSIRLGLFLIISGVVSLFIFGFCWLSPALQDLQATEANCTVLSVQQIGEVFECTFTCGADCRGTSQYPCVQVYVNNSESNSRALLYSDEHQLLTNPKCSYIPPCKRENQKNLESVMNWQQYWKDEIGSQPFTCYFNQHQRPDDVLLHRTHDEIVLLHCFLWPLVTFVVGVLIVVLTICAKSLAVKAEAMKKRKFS
experiment: patch-clamp electrophysiology (time course of current block); outside-out patches of transfected HEK293 cells perfused with 1 μM ChTX; steps to +100 mV, intracellular 10 μM Ca2+; τon and τoff fitted to a first order bimolecular reaction scheme; KD = [ChTX]/((τoff/τon) − 1)
experimental-setup: one partner purified
measured-metric: pKd
pKd here: minus log base 10 of the concentration, concentration in moles per litre.

Quick note, pKd for QFTNVSCTTSKECWSVCQRLHNTSRGKCMNKKCRCYS (charybdotoxin (ChTX), scorpion toxin; also called ChTX; source: bought: Sigma-Aldrich (Art. No. C7802)) [Charybdotoxin] landed at 6.49
